This collection of values is drawn from the supplement of paper PMC9732359.

assay.protocol: protein stability index of a GFP-peptide fusion (yeast GPS) (PSI 1-4); higher = more stable; sorted into four equal gates, so the index is relative within each strain
condition.set: san1∆
Bucketed by reported protein stability index, buckets being low = under 2, intermediate = from 2 up to 3, high = 3 and over

residues | class.label
LGCTLVTLLANVRALYM [RMP1] | intermediate
VEDELTESIALSSMRFK [RRI1] | high
RYQIMLPEQLKSGKFCS [SNM1] | intermediate
TITKRNGAFQNSSNLSY [RRP4] | high
EIKDGRSLFLRNRGKIH [YMR153W/NUP53] | low
FFKPLDYITEAVFKIVL [SNU114] | low
LLLLSLFKKITNVNPSK [YML103C/NUP188] | intermediate
AIKELNYNRIAKICALL [NUT1] | intermediate
PWNDDYPFLLSFLGEAK [YML103C/NUP188] | low
QTLSSHLEALQPLFSTV [PGD1] | intermediate
VLRLATNKGPLAQIWLA [MCD1] | low
WYLILSIISSKTSCVVE [RGR1] | low

====

assay.protocol: protein stability index of a GFP-peptide fusion (yeast GPS) (PSI 1-4); higher = more stable; sorted into four equal gates, so the index is relative within each strain
condition.set: ubr1∆
Entry flag: class 1 if protein stability index reaches 3; class 0 if it does not.

residues | class.label
PTPVVTISEKEQDILDL [SSN2] | class 0
NNNGNSAASKKKKNKNK [SRP21] | class 1
DLKEGLQDLSRYSRQFI [GRR1] | class 1
NELTDAIALAVRLGEED [RPN1] | class 0
ALSLLYHLLNYDPIKRI [SSN3] | class 0
LPPPEDVAFLKTAYSIY [RPN1] | class 0
TSFEQGEITFDGIGGLT [RPT4] | class 1
RMNTIITHPGKMELVYV [SIR4] | class 0

====

protein stability index listing for selected sequences.
assay.protocol: protein stability index of a GFP-peptide fusion (yeast GPS) (PSI 1-4); higher = more stable; sorted into four equal gates, so the index is relative within each strain
condition.set: san1∆

residues | protein stability index
YDIDEIDHSDESNRQSV [ESC2] | 3.23
LLSEHDDHNGEVWSVSW [YGL100W/SEH1] | 2.36
SQKQTLIKKPLTVFYAI [SSN3] | 2.12
SPIPFPPLTYKNDTKIL [PRP8] | 2.73
SLTEATKTNVDNNSKAE [YLR335W/NUP2] | 3.14
LWDIMGDRQRLGEEHPL [RPT1] | 3.31
KSKEDMKQLKFFKPLDY [SNU114] | 3.05
SLVIIILVKRYSIEMKP [ECM29] | 1.59
GTQQSNMYTSTQKTELE [SIR4] | 2.95
AQDSLTVTIASSLNLED [RPB8] | 2.23
NENRNTGAGVDVNTNAN [SNF11] | 3.15
FMDVITLDATNENFRLV [RPS4A] | 2.72
IIERYIKSKADAWVSAA [PRP8] | 2.39
FQTIFSKQDLIHSLIPV [SIN4] | 1.66
KVKPIRGFCQRLKGKQG [RPO31] | 2.79
EGMFANANRVFRTRFQD [SMC2] | 2.68
MFSPLVDSGSNDAMAGG [RPO21] | 3.37
RNFDTHENYIQDDDFPL [MCD1] | 2.85
QTIPIQIYGFEGLNQRN [YGR119C/NUP57] | 2.52
QDRDRFFLRDTLLWNKN [SNF5] | 2.83
CKVVAEMIRGRSPEEIR [SKP1] | 2.21
KTLCARAVANRTDATFI [RPT1] | 1.26
QNQGGAQAPFDIDDLAF [ROX3] | 3.4
ARRTLQKLGLDETYKGV [RPL5] | 3.43
SSTKDYLTPPHECRLRD [RET1] | 3.2
GPVVAGINSKSGKPFIA [PUP3] | 2.99
VQQSEKLRNEVERIQKM [YIL149C/MLP2] | 2.86
ASSTPIPVLGKPTDATG [YOR098C/NUP1] | 2.6
IKILGSEGYQKTFSRLD [RPN4] | 1.05
PDRQSMDSRVAHGNILI [SRB5] | 3.02
LAGKRGPKSGSTMGTPT [PGD1] | 2.6
FGNIQKVVNFWLLHNGF [RPO21] | 1.99
DDYYKEIIGGGSKSASK [ISW2] | 3
KAMSSRAGVSQVLNRYT [RPB2] | 2.97
LFKKITNVNPSKNFNVI [YML103C/NUP188] | 2.73
LLERYIGNLITRQFEGR [PRP8] | 2.43
ANANANATANATANATA [SNF11] | 3.29
VKNLSLMSCISVGTDPM [RPB2] | 2.48
SDNISRKYEISFGKIYV [RPB2] | 2.78
NHSNNDIPTIADEHFWA [BRN1] | 3.2
SAAELERLDKDKDRDTR [SNF5] | 1.9
IPSIPNPIANHTVTNSP [SNF5] | 2.45
LLFNNDFPLLKVLAAHT [RRP40] | 1.18
LRACAANVDQISFLEPI [YMR129W/POM152] | 2.92
GRAGVPMEVMGLMLGEF [RPN11] | 1.69
TESLRVENSVLIEKVDD [YIL149C/MLP2] | 2.63
FLKLANGGKFSKSNLIH [RGR1] | 2.87
IPTKESLTRDFEQCCKE [YIL149C/MLP2] | 2.62
FNNGDDDDYGDEEDPNE [RPC31] | 2.98
RTPVIISLRNNHKIIAR [SMD2] | 2.13
RQCFQDNCCDFKVRTNL [MED1] | 3.42
EMMKMMQDPQMQQMAKQ [SRP54] | 2.77
YFKMFPASKHDKEVVYF [RPC34] | 3.26
SKEETVDFIKHSLSQAI [PRE3] | 2.66
EIRPEMLGHYLGEFSIT [RPS15] | 3.11
NPFTSATSSTNANAGLF [YOR098C/NUP1] | 2.82
FAKEHNATVNLAMEAIL [YJR042W/NUP85] | 2.71
VGASVVVVKNWGAETDE [RPS12] | 3.29
IKNIGKSLKNNFYRPLL [YML103C/NUP188] | 2.7

====

assay.protocol: protein stability index of a GFP-peptide fusion (yeast GPS) (PSI 1-4); higher = more stable; sorted into four equal gates, so the index is relative within each strain
condition.set: pdr5∆
measured.property: protein stability index

residues | value.measured
AKALESLASCLRSTEYS [POP1] | 3.25
SATPNAAAFSQQQNASS [GAL11] | 3.1
KTAYSIYLSQNELTDAI [RPN1] | 2.28
DSIIDNIVKLCFVHRYK [IRR1] | 1.95
VTFSVMPPKKSWRNITN [SMC4] | 2.45
VRNSFPLDEIPVDVDFN [REC8] | 2.33
ILTSLMRSKLEKLTLVT [CSN9] | 3.03
FLNTPNNNINENELFND [SSN2] | 3.06

====

assay.protocol: protein stability index of a GFP-peptide fusion (yeast GPS) (PSI 1-4); higher = more stable; sorted into four equal gates, so the index is relative within each strain
condition.set: ubr1∆

residues | protein stability index
LSQVYPTLVRSVISGNL [CSN12] | 2.48
NENFRLVYDVKGRFAVH [RPS4A] | 3.25
MVNTQQPIVTGTSVISM [PRE4] | 1.96
QTVRLIKDLQRAINKVL [SIR2] | 2
NMNNGGKELDSLDLNNL [PGD1] | 3.26
LLEFFELVFSKGVYLIL [YML103C/NUP188] | 2.26
LATAHIYLSRFLIKASV [SSN8] | 1.07
VPEFFQTANEKHITVRL [SRP14] | 2.56
AYKFEEVSKDLIAVYYS [RPB8] | 3.11
MPGVSVRDVAAQDFINA [RPS19A] | 1.16
PLVAHLGLYVGVDDQIL [YJL039C/NUP192] | 1.48
GISEVQARKSKSVSFYA [RPT5] | 3.31
KPMNKGQHKNNTSLNIN [SWP82] | 2.98
TQARVITGNKIMRILKS [RPS13] | 1.1

====

assay.protocol: protein stability index of a GFP-peptide fusion (yeast GPS) (PSI 1-4); higher = more stable; sorted into four equal gates, so the index is relative within each strain
condition.set: doa10∆
measured.property: protein stability index

residues | value.measured
LCRQGHNMLNLLIHRKG [PRP8] | 2.33
GTLWAHVLKTVDYGGAE [SNU114] | 1.44
LNTKSIQIDEETENSES [MCD1] | 2.16
LTSNLSNYSRTMTISHL [YJL039C/NUP192] | 2.56
PSMKKIKIEPSADDDVN [SIR3] | 1.95
PGIMLRQMNLVITLLNN [YCS4] | 1.2
LNKSDLLDKYGKTGLSN [YML103C/NUP188] | 3.38
KSLGLKLPLSVINVSAQ [RPS17A] | 1.35
SSHQRVFKLSTNLISKI [SWP82] | 2.08
ILPQQSKLKLKNLLRKN [ECM29] | 2.39
LATAHIYLSRFLIKASV [SSN8] | 1.23
KPAFSFGAKSDEKKDSD [YJL041W/NSP1] | 3.35
PSRIFYKALRGMVSHKT [RPL16A] | 2.32
SFFHQSNMQKSLLPYYH [RPN3] | 1.66
CVYVPNFNASLQLTTNT [SNM1] | 2.06
QEKQEQQEQDKKKKSNH [PRE6] | 1.97
DYLFHLLISLNILFSLW [YLR018C/POM34] | 1.61
IPSIPNPIANHTVTNSP [SNF5] | 2.46
PSTKVASSAVMNRRKIA [YLR335W/NUP2] | 1.41
SIVEECDARFDEKTIEE [RPC17] | 2.98
LQSISSLTISLYASDYA [RPN7] | 1.71
LKTVIILSSLYLLSIWV [CYT1] | 2.12
SSETDDDHSQVINPQQL [DSN1] | 2.99
DYNFKYGIPLEFYNEMH [PRP8] | 2.98
HKSIELISNLLFSKNRN [YCS4] | 2.25
ELRFPSPTPIQRITIPN [PRP28] | 2.02
YNNNTIRKLLEKINRMI [CSI1] | 3
LLGKESFKKIIKFLLTF [YCS4] | 1.45
TAKKDMSSTTPKLESVK [SNF12] | 3.31
NESFNRRISSMPGGYFH [YAR002W/NUP60] | 2.88
